System name: human ether-à-go-go-related gene (hERG) potassium channel (human);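 also: peak tail current of the secondary pulse compared with the same well before compound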
Assay notes: primary screen, population patch clamp on CHO cells stably expressing hERG; higher = less effect of the substance
Among all 310,000 compounds or so, about 14,000 (4.5%) showed an effect of 50% or more. Effects have a minus sign here. The sample as a whole holds a higher share of strong results than the screen did.
Assign 1.0 whenever hERG current change (%, negative = inhibition) at 10uM does not fall below -30%; assign 0.0 whenever it does.

> print(dat)
                                   compound                               system.name  label
1  CCN(CC)CCCN(Cc1cc2cc(OC)ccc2[nH]c1=O)C(=O)Nc1ccccc1  human ether-à-go-go-related gene (hERG) potassium channel (human)    0.0
2  COc1ccc(NC(=O)N(Cc2cc3cc(OC)ccc3[nH]c2=O)CC2CCCO2)cc1 (stereo not drawn)  human ether-à-go-go-related gene (hERG) potassium channel (human)    0.0
3  CCOc1ccccc1NC(=O)N1CCC(c2nc3ccccc3[nH]2)CC1  human ether-à-go-go-related gene (hERG) potassium channel (human)    1.0
4  COc1ccc(C(=O)NC2CCN(CC(=O)NCc3cccc(OC)c3)CC2)cc1  human ether-à-go-go-related gene (hERG) potassium channel (human)    1.0
5  COc1cccc(CNC(=O)CN2CCC(c3nc4ccc(C)cc4[nH]3)CC2)c1  human ether-à-go-go-related gene (hERG) potassium channel (human)    0.0
6  COc1ccc2[nH]c(=O)c(CN(CC3CCCO3)C(=O)Nc3ccccc3)cc2c1 (stereo not drawn)  human ether-à-go-go-related gene (hERG) potassium channel (human)    1.0
7  COc1ccccc1NC(=O)CN1CCC(c2nc3ccc(C)cc3[nH]2)CC1  human ether-à-go-go-related gene (hERG) potassium channel (human)    0.0
8  O=C(CSc1nc2cc(Cl)ccc2s1)Nc1cccc(S(=O)(=O)N2CCOCC2)c1  human ether-à-go-go-related gene (hERG) potassium channel (human)    1.0

---

System name: human ether-à-go-go-related gene (hERG) potassium channel (human, UniProt Q12809);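 also: peak tail current of the secondary pulse compared with the same well before compound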
Sequence (Q12809 whole entry, looked up): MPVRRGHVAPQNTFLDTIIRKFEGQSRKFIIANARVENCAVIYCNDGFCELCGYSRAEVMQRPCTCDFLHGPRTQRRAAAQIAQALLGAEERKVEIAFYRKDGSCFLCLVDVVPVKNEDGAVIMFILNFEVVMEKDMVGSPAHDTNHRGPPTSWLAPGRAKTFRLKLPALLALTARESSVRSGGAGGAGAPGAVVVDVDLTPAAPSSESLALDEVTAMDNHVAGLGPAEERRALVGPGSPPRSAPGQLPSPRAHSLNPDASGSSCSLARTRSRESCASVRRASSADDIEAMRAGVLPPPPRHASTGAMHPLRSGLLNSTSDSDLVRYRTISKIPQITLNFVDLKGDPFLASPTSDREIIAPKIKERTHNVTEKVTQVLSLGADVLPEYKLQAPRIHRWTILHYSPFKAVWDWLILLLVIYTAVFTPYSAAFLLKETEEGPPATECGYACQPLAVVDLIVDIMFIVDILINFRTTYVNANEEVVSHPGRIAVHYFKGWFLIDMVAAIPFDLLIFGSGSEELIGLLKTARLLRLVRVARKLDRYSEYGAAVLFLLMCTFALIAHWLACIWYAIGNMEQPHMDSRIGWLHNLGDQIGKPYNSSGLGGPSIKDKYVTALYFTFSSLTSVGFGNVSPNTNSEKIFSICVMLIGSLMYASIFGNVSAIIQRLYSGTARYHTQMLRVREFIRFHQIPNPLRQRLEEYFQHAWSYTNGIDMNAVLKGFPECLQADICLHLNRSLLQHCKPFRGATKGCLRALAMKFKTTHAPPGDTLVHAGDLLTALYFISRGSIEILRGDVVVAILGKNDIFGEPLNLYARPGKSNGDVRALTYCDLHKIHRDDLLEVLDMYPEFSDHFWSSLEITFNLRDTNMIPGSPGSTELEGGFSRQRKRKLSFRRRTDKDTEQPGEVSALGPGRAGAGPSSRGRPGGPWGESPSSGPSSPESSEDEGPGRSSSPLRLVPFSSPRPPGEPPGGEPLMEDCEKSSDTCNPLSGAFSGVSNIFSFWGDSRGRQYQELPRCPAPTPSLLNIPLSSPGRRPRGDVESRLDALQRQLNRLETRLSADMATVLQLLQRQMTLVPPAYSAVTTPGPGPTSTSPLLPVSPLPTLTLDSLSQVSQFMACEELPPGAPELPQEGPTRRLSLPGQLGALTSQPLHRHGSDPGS
Assay notes: primary screen, population patch clamp on CHO cells stably expressing hERG; higher = less effect of the substance
In all, about 310,000 compounds went through this assay and about 14,000 (4.5%) showed an effect of 50% or more. The effect is printed as a negative number. Many of the other results were omitted from the sample, so strong results are more common in it than they were.
Measurement kind: hERG current change (%, negative = inhibition) at 10uM (%)

> print(dat)
                                   molecule  measurement
1  CCOC(=O)c1nn(-c2ccc(C)cc2)c(=O)cc1OCC(=O)Nc1cc(C)ccc1OC        -2.12
2  CCN(CC(=O)Nc1cc(OC)ccc1OC)Cc1nc2ccccc2c(=O)[nH]1        -8.33
3  CCN(Cc1nc2ccccc2c(=O)[nH]1)Cc1cc(=O)oc2cc(OC)ccc12        -51.1
4  CCc1ccc2c(CN(CC)Cc3nc4ccccc4c(=O)[nH]3)cc(=O)oc2c1        -71.6
5  COc1cccc(C(=O)C2CCCN(Cc3cn(CC(N)=O)c4ccccc34)C2)c1 (centres unmarked)          -53

---

System name: human ether-à-go-go-related gene (hERG) potassium channel (human);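 also: peak tail current of the secondary pulse compared with the same well before compound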
Assay notes: primary screen, population patch clamp on CHO cells stably expressing hERG; higher = less effect of the substance
The campaign covered roughly 310,000 compounds. About 14,000 (4.5%) showed an effect of 50% or more. Effects have a minus sign here. The sample holds strong results, similar compounds and a random draw of the others, so the mix is not that of the screen.
Below, each of the compounds is paired with its reported hERG current change (%, negative = inhibition) at 10uM value.
Measurement kind: hERG current change (%, negative = inhibition) at 10uM (%)

> print(dat)
                                   compound  measurement
1  CCOc1ccc(NC(=O)C(CC(=O)O)Cc2ccccc2)cc1 (centres unmarked)         5.94
2  COC(=O)[C@]1(C)N[C@H](c2ccc(-c3ccc(F)cc3)cc2)[C@@H]2C(=O)N(C)C(=O)[C@@H]21.O=C(O)C(F)(F)F         -1.3
3  CCOc1ccccc1NC(=O)COC(=O)c1ccccc1SCC(=O)N1CCCC1         1.65
4  CC(CNS(=O)(=O)c1ccc2c(c1)CC(=O)N2C)c1ccccc1 (centres unmarked)        -12.3
5   COc1ccnc2c1c(=O)n(Cc1ccc(F)cc1)c(=O)n2C        -6.22
